test system: IGROV-1; test: NCI tumour cell line growth inhibition, 48 h
Active and inactive are the calls of the source. Rule as the data show it: active = GI50 up to about 1.1 µM and inactive = higher.
Quantity name: GI50

// known answers, use as guide
For record COc1ccc2c(c1OC)C(=O)N/C2=C\c1c(CCN(C)C)cc2c(c1OC)OCO2 the listed GI50 is 38.6 µM (inactive)

Entry CCN(CC)CCNc1ccc2nnn3c4ccccc4c(=O)c1c23 , GI50 reported as 6.98 µM (inactive)

// GI50 lookup, molecule = N#Cc1c(-c2ccc([N+](=O)[O-])cc2)c(C#N)c(=O)n(NS(=O)(=O)c2ccccc2)c1-c1ccccc1 , result: > 100 µM (inactive)

Input CSc1nc(C)c(CCCl)c(Cl)n1 . Output GI50: > 100 µM (inactive)

The molecule listed as CC(C)(C)c1ccc2c(c1)C(O)(c1ccccc1)c1cc(C(C)(C)C)ccc1C2(O)C(F)(F)F (stereo not given) shows GI50 equal to 2.15 µM (inactive)

Go through the list and state GI50 for each entry.
1. CC12CC3OC(=O)C1COC14OC5(C2C1=O)C(O)(CCC1C4CC(O)C2(O)CC=CC(=O)C12C)C(=O)OC35C (stereo not given)
2. C[n+]1c2ccccc2cc2c(CNC(CCCNC(=N)N)C(=O)O)cccc21 (stereo not given)
3. Brc1cccc(Nc2ncnc3sc4c(c23)CCC2(C4)OCCO2)c1

["> 100 µM (inactive)", "7.4 µM (inactive)", "8.73 µM (inactive)"]

Batch lookup, GI50 per entry.
1. SC1CCCN(Cc2ccccc2)C1 (stereo not given)
2. O=C(O)CCC(=O)c1ccc2ccc3cccc4ccc1c2c34

59.8 µM (inactive)
70.3 µM (inactive)
